- protocol: antagonists of CRF-BP/CRF-R2 complex, primary screen, cell-based, HEK293, calcium dye fluorescence, uHTS (AID 588475)
- assay conditions: CRF-induced calcium fluorescence, at 11.8 µM
The whole screen tested about 350,000 compounds, of which about 2,100 (0.6%) were called active.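 Rule for the calls: active = inhibition of the ligand-induced calcium signal above about 50% at the single tested concentration (limit read from the data); inactive = the rest.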 Shown is part of a subset that was picked to be rich in actives.
Response enum: Y (active), N (inactive)

Here are 3 molecules together with their reported answers.
COC(=O)Nc1ncc(CN2C(=O)c3ccccc3C2=O)s1 = N
O=C(Nc1ccccc1N1CCOCC1)c1ccncc1 = N
Cc1cccc(OCCC(=O)Nc2cc(S(=O)(=O)N3CCCCC3)ccc2N2CCOCC2)c1 = N

Which result was noted for this molecule in the test: COc1ccc(CCN=C2SCC(=O)N2Cc2ccccc2)cc1OC
N

Which result was noted for this molecule in the test: COc1ccc(S(=O)(=O)N2CCc3ccccc32)cc1C(=O)Nc1cc(S(C)(=O)=O)ccc1Cl
N

Which result was noted for this molecule in the test: CC1=CC(=C(C#N)c2nc3ccccc3s2)C=C(C)N1c1ccc(F)cc1F
N

Which result was noted for this molecule in the test: O=C(NC(=S)Nc1ccccc1N1CCCCC1)c1ccc(F)cc1
N

Which result was noted for this molecule in the test: CCc1ccc(CN(C)C(C)C(=O)Nc2ccc(S(=O)(=O)N3CCCC3)cc2)cc1 (centres undefined)
N

Which result was noted for this molecule in the test: Cc1ccccc1N1CCN(C2CCCN(C(=O)c3cn4c(C)cccc4n3)C2)CC1 (centres undefined)
Y

----------
- protocol: antagonists of CRF-BP/CRF-R2 complex, primary screen, cell-based, HEK293, calcium dye fluorescence, uHTS (AID 588475)
- assay conditions: CRF-induced calcium fluorescence, at 11.8 µM
The campaign covered roughly 350,000 compounds. About 2,100 (0.6%) were called active.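 Rule for the calls: active = inhibition of the ligand-induced calcium signal above about 50% at the single tested concentration (limit read from the data); inactive = the rest.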 The list comes from a sample in which actives are over-represented; it also holds close analogues and randomly drawn compounds.
Response enum: yes (active), no (inactive)

CCNC(=O)CC1C(=O)N(c2ccc(F)cc2)C(=O)N1CCc1sccc1C (configuration not stated) = no
Cc1cc(C(=O)OC(C)C(=O)NC2CCCCC2C)c(C)o1 (configuration not stated) = no
Cc1nc(C)c2c(c1C(F)(F)F)-c1ccccc1C2(F)F = no
O=C(NCCCN1CCOCC1)c1ccccc1NS(=O)(=O)c1ccc(Br)cc1 = no
CCN(C(=O)CSc1ncnc2c1cnn2-c1ccccc1)C1CCS(=O)(=O)C1 (configuration not stated) = no
Cc1nc2ccc(NC(=O)c3cccc(S(=O)(=O)N4CCOCC4)c3)cc2s1 = yes

Here is the next item to consider.
Which result was noted for this compound in the test: CC(C)=N/N=C1/NC(=O)C(Cc2ccccc2)S1 (configuration not stated)
no

----------
Entries and their measured inhibition follow.
- protocol: antagonists of CRF-BP/CRF-R2 complex, primary screen, cell-based, HEK293, calcium dye fluorescence, uHTS (AID 588475)
- assay conditions: CRF-induced calcium fluorescence, at 11.8 µM, stronger effect = higher value
Among all 350,000 compounds or so, about 2,100 (0.6%) were called active. Only a selection was taken, and actives are over-represented in it overall.
Please respond with the number in % and leave the unit unwritten.

CC1(C)CC(=O)C(N=Nc2c(F)cccc2F)=C(O)C1 = 14.8
O=C(O)c1ccc(/C=N/NC(=S)NCc2ccccc2)cc1 = 3.62
CC(NC(=O)COC(=O)C1CCN(S(=O)(=O)c2ccccc2C(F)(F)F)CC1)c1ccccc1 (stereo unspecified) = -1.56
CCCCn1c(N)c(N(CC(C)C)C(=O)CN(C)S(=O)(=O)c2ccc(F)cc2)c(=O)[nH]c1=O = -2.99
CCS(=O)(=O)C1=NSC2=NC(=O)/C(=C\c3ccc(OS(=O)(=O)c4ccccc4)cc3)C(=N)N21 = 0.32

Read off the recorded inhibition for Cc1ccc(OCC(=O)Nc2ccccc2C(=O)NC2CC2)cc1C
0.16
